Assay: label from the status in PepcDB records
reported property: protein production

seq text	result
MNIQQLEYIAALDKFRHFAKAADYCNVSQPTLSTMILKLEEELGAKLFDRSRQPIEPTSIGALVVSQAKQILYDLNSITRIIEEEQ	failed
SGCIQSITCKARIRRENIVVYDVCATIDQCPTRIEETSPIVLRYKTPYFKASARVVMPPIPRHETWVVGWIQACNQMEFFNTYSDLGMSSWELPDLREGRVKAISDSDGVSYPWYGNTTETVTLVGPTNKISRFSVSMNDNFYPSVTWAVPVSDSNVPLLTRIKRDQSFTTWLVAMNTTTKEKIILQTIKWRMRVDIEVDPLQLLGQRARLVGRTQQEQPRILSRMEPIPPNALVKPNANDAQVLMWRPKRGPPLVVIPPK	not failed
MTIYAAGLPAFLSYFSIGLVCFAIFSTIYTRLTPHEEVELIKAGNISAVVAFLGALIGFSLPLASAAAHSVSLPDYVIWAAIGLLVQVLAFYIAKLTMTDLHLKITEGNVAAGLWSGGIAVVIGTLNAACMAY	failed
MLKLGVIGTGAISHHFIEAAHTSGEYQLVAIYSRKLETAATFASRYQNIQLFDQLEVFFKSSFDLVYIASPNSLHFAQAKAALSAGKHVILEKPAVSQPQEWFDLIQTAEKNNCFIFEAARNYHEKAFTTIKNFLADKQVLGADFNYAKYSSKMPDLLAGQTPNVFSDRFAGGALMDLGIYPLYAAVRLFGKANDATYHAQQLDNSIDLNGDGILFYPDYQVHIKAGKNITSNLPCEIYTTDGTLTLNTIEHIRSAIFTDHQGNQVQLPIQQAPHTMTEEVAAFAHMIQQPDLNLYQTWLYDAGSVHELLYTMRQTAGIRFEAEK	not failed

====

Experiment: label from the status in PepcDB records
reported property: protein production

seq text	reported property	result
MQSLHGNCLIAYARHKYILTMVNGEYRYFNGGDLVFADASQIRVDKCVENFVFVSRDTLSLFLPMLKEEALNLHAHKKVSSLLVHHCSRDIPVFQEVAQLSQNKNLRYAEMLRKRALIFALLSVFLEDEHFIPLLLNVLQPNMRTRVCTVINNNIAHEWTLARIASELLMSPSLLKKKLREEETSYSQLLTECRMQRALQLIVIHGFSIKRVAVSCGYHSVSYFIYVFRNYYGMTPTEYQERSAQRLSNRDSAASIVAQGNFYGTDRSAEGIRL	protein production	failed
MPGSALLSLQQELRRGFEALKAAKDTFDGGHAECQELVSSLGNLAPQLKALKQVQISETPLSGFPCLQQRLHYKLSLAVDALLAKLAEKMAALQKVWDAFAQQVFTVVQLYEKNTDALDISVCVSRSAVCPSVSDMLEWLQDADRYYRLQLMQSRLLLQTLTPTDLTSMETAPNRWRSVRSARQEERIADALCQVSIFLETE	protein production	failed

====

Assay: label from the status in PepcDB records
reported property: protein production

# count of solved cases: 4
seq text	result
MVVAVYPGTFDPLTRGHEDLVRRASSIFDTLVVGVADSRAKKPFFSLEERLKIANEVLGHYPNVKVMGFTGLLKDFVRANDARVIVRGLRAVSDFEYEFQMAGMNRYLLPDVETMFMTPSDQYQFISGTIVREIAQLGGDVSKFVFPSVEKWLTEKVAAMAQGPSA	not failed
PQKKVIVLVHGLASSPEAWIALTNDIMGDNILREHYQVWQVFYSTNMPILESRFQIYALLKQAFDSLNPNDPADHNAVLIGHSMGGIISRLLVSQADISQKAFSLVSPYQQAQLKKQPMVYQRLKIQPIPNFDRAIFMSAPHHGTDFADLWFTRAARKIIKLPGAFLGAITDTVTNENIDAKDLLLRIDQGLIQNGPSDLSYKSKFIELTKNINPPSGFVFHSIIGNNTKSDDPEKITDGIVPYKSAHLEGSASEKIIQGGHSIQETPQAVLELRRILRLHLKEHQ	failed
MSLSDTIPVFDGHNDFLLRLLRNPANRETIWLKGDGTGHLDLPRMKEGGFAGGFFAIYVPSPQAHDAAHFEAMMDAPPFELPLPPMIRAEQAQPVALAMAGHLLWMERAARGRFKVCRTAAEVRSCHADGIVSGIMHMEGAEAIGADLDALHLFHSLGLRSLGPVWSRPTVFGHGVPFRFPGSPDTGEGLTEAGRRLVAECNRLKIMLDLSHLNEKGFDDVARLSDAPLVATHSNAHAVTPSTRNLTDRQLAMIRESRGMVGLNFATSFLREDGRRSAEMGWEPVLRHLDHLIDRLGEDHVGMGSDFDGATIPQGIADVTGLPALQAAMRAHGYDEPLMRKLCHENWYGLLERTWGEGHHHHHH	not failed
MSTRLCEPSLRDDGAQRGTPASHGKWCDTGAFKLDETPSPVVANVSSTSDASFQFNRTPSPGKHQNHAADRSMWSLDDFVIIRKLDEGRFGKVYLAREKQSKCAVVLKCISKDMIRFHSLAHQLQREVELQEYAGRYHKNVLRLFAYFWDDVRIVLVLEYADSGTLQDLLDCYREKEQRSSLPDDKVRTILLQLLSALAFLHERDIIHRDVKPDNILFHGEKLLLADFSWAVRVNNSDPRYCRRHTVCGTLDYLAPEQVLKRGCTTKADLWAVGVVAYRMLCGFLPFEMLDARDVCSCIASGAIRYPSQLSPTARHFLQGLLRVDEALRFSCQEALNHPFMRGDCNCRISNRYIESKHRARAEEPVLQHQGSFDTT	failed

Now for another entry.
Exam item: Query: protein production; subject: "MASASFSAVSSLSYQFRSKEAIFSSKASCFSSTALSGRRVFGSIKAAQVTSHENPRRRTQNVEGDIFVDNTCIDCDTCRWMVPDLFTRVDNMSAVTKQPTCKEERLNALQALLSCPTGSIRTQTPPADIGEAQETFPLVVDKDTLPGVFHCGFHSKKSYGATSYLILHREGNILVDSPRYVEKLAGKIEMKGGVRYMFLTHRDDVADHKKWADRFKSTRILHSDDVEPSTSDVELKLEGSGPWSIYEDVELIHTPGHSEGSVCMFHKSLKALFTGDHVIMTESGLSILEQYNHGSVPLQLENVEKLINLDFNWLIPGHGRRVHFKDGDEKAKNLEALVQKHREKQLVSFSKSGKA"
Marked response: failed
